Cited source: the supplement of paper PMC7156485

System: TDF;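 also: TDF is a line of transformed human dermal fibroblasts of mesenchymal origin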
Assay: H1.0 immunofluorescence intensity relative to DMSO (% of DMSO); higher = stronger H1.0 induction, active = 120 or more
Settings: concentration: 10 µM; 24 h
Assign H1.0 immunofluorescence intensity to each entry below.
# answer = number (no unit)

*Q* Which value of H1.0 immunofluorescence intensity has been reported for CCCCCCCCC=CCC=CCC=CCCCC(=O)NCCO [Mead ethanolamide] in the records?
*A* 108

*Q* Which value of H1.0 immunofluorescence intensity has been reported for Cc1ccc(S(=O)(=O)NC(=O)NN2CC3CCCC3C2)cc1 (centres undefined) [Gliclazide] in the records?
*A* 89

*Q* Which value of H1.0 immunofluorescence intensity has been reported for CC(C)n1c(C=CC(O)CC(O)CC(=O)O)c(-c2ccc(F)cc2)c2ccccc21 (centres undefined) in the records?
*A* 148

*Q* Which value of H1.0 immunofluorescence intensity has been reported for CCCCCCCC/C=C\CCCCCCCC(=O)NCc1ccc(O)c(OC)c1 [(9Z)-N-(4-hydroxy-3-methoxybenzyl)-9-octadecenamide] in the records?
*A* 95.2

*Q* Which value of H1.0 immunofluorescence intensity has been reported for CC(C)(C)c1cc(O)ccc1O [tert-Butylhydroquinone] in the records?
*A* 96.4

*Q* Which value of H1.0 immunofluorescence intensity has been reported for CCCCCCCCCCCCCCCCCCCCCCCC(=O)O in the records?
*A* 98

*Q* Which value of H1.0 immunofluorescence intensity has been reported for COc1cc2ncnc(Nc3ccc(Cl)cc3F)c2cc1OC.Cl in the records?
*A* 95.7

*Q* Which value of H1.0 immunofluorescence intensity has been reported for CC1=NC(=NNc2ccc(S(=O)(=O)[O-])cc2S(=O)(=O)[O-])C(COP(=O)([O-])[O-])=C(C=O)C1=O.[Na+].[Na+].[Na+].[Na+] in the records?
*A* 90.1

*Q* Which value of H1.0 immunofluorescence intensity has been reported for COc1ccc(Cl)cc1NC(=O)Nc1cc(C)nc2ccccc12 [IGF-1R Inhibitor II] in the records?
*A* 98.8

*Q* Which value of H1.0 immunofluorescence intensity has been reported for CCOC(=O)c1ncn2c1CN(C)C(=O)c1cc(F)ccc1-2 in the records?
*A* 98.2

*Q* Which value of H1.0 immunofluorescence intensity has been reported for O=c1cc(-c2cccc3c2Sc2ccccc2S3)oc(N2CCOCC2)c1 [ATM Kinase Inhibitor] in the records?
*A* 98.4

*Q* Which value of H1.0 immunofluorescence intensity has been reported for OCC1OC(O)C(Cl)C(O)C1O (centres undefined) in the records?
*A* 101

*Q* Which value of H1.0 immunofluorescence intensity has been reported for CN1C(=O)CC(C(=O)O)C1c1cccnc1 (stereo not drawn) [Trans-4-Cotininecarboxylic acid] in the records?
*A* 93.3

*Q* Which value of H1.0 immunofluorescence intensity has been reported for O=C(O)[C@H]1C[C@H](C(=O)O)N1 (relative stereo) [trans-Azetidine-2,4-dicarboxylic acid] in the records?
*A* 91.5

*Q* Which value of H1.0 immunofluorescence intensity has been reported for CC12CCC(=O)C=C1CCC1C2C(O)CC2(C)C(C(=O)CO)CCC12 (centres undefined) in the records?
*A* 92.8

*Q* Which value of H1.0 immunofluorescence intensity has been reported for COc1cc(C=Cc2ccccc2)oc(=O)c1 [5,6-Dehydrokawain] in the records?
*A* 99

*Q* Which value of H1.0 immunofluorescence intensity has been reported for CC(C)C[C@H](NC(=O)C(O)[C@H](N)Cc1ccc([N+](=O)[O-])cc1)C(=O)O.Cl (some centres undefined) in the records?
*A* 95.3

*Q* Which value of H1.0 immunofluorescence intensity has been reported for CC(=O)Oc1ccccc1C(=O)O in the records?
*A* 89.6

*Q* Which value of H1.0 immunofluorescence intensity has been reported for Nc1nc(N)nc(-c2cc(Cl)ccc2Cl)n1 in the records?
*A* 94.5

*Q* Which value of H1.0 immunofluorescence intensity has been reported for O=c1[nH]c2ccccc2n1CCCN1CCN(C(c2ccccc2)c2ccccc2)CC1 [Oxatomide] in the records?
*A* 90.8

*Q* Which value of H1.0 immunofluorescence intensity has been reported for CCC(=C(c1ccccc1)c1ccc(OCCN(C)C)cc1)c1ccccc1.O=C(O)CC(O)(CC(=O)O)C(=O)O [Tamoxifen citrate] in the records?
*A* 115

*Q* Which value of H1.0 immunofluorescence intensity has been reported for CC1(C2CCCC2)Cc2cc(OCC(=O)O)c(Cl)c(Cl)c2C1=O (centres undefined) in the records?
*A* 91.9

*Q* Which value of H1.0 immunofluorescence intensity has been reported for O=C(O)CCc1nc(-c2ccccc2)c(-c2ccccc2)o1 in the records?
*A* 96.9

*Q* Which value of H1.0 immunofluorescence intensity has been reported for CCCOC(=O)c1c(-c2ccccc2)nc(CC)c(C(=O)SCC)c1CCC in the records?
*A* 93.7

====

Test system: TDF;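 also: TDF is a line of transformed human dermal fibroblasts of mesenchymal origin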
Assay: H1.0 immunofluorescence intensity relative to DMSO (% of DMSO); higher = stronger H1.0 induction, active = 120 or more
Conditions: concentration: 10 µM; 24 h
Assign t to entries whose H1.0 immunofluorescence intensity meets or exceeds 90; assign f to the rest.

*Q* Check if H1.0 immunofluorescence intensity >= 90 (inclusive). Item: CN1CCN(c2nc3cc(C(F)(F)F)ccc3n3cccc23)CC1.O=C(O)C=CC(=O)O
*A* t

*Q* Check if H1.0 immunofluorescence intensity >= 90 (inclusive). Item: CC(C)C(CO)Nc1nc(Nc2cc(N)cc(Cl)c2)c2ncn(C(C)C)c2n1 (configuration not stated)
*A* t

*Q* Check if H1.0 immunofluorescence intensity >= 90 (inclusive). Item: Cl.O=S(=O)(c1cccc2c(I)cccc12)N1CCCNCC1
*A* t

*Q* Check if H1.0 immunofluorescence intensity >= 90 (inclusive). Item: N=c1ccn2c(n1)OC1C(O)C(CO)OC12 (configuration not stated)
*A* t

*Q* Check if H1.0 immunofluorescence intensity >= 90 (inclusive). Item: NC(=O)Nc1sc(-c2ccc(F)cc2)cc1C(N)=O
*A* t

*Q* Check if H1.0 immunofluorescence intensity >= 90 (inclusive). Item: Oc1ccc(Cn2cc[nH]c2=S)cc1 [1-(4-Hydroxybenzyl)imidazole-2-thiol]
*A* t

*Q* Check if H1.0 immunofluorescence intensity >= 90 (inclusive). Item: Cn1cnc2c(F)c(Nc3ccc(Br)cc3Cl)c(C(=O)NOCCO)cc21
*A* t

*Q* Check if H1.0 immunofluorescence intensity >= 90 (inclusive). Item: O=C1Nc2ccc(Br)cc2C1=Cc1cc2c([nH]1)CCCC2
*A* f

*Q* Check if H1.0 immunofluorescence intensity >= 90 (inclusive). Item: O=C1NC(=O)C(=Cc2ccc3nccnc3c2)S1
*A* f

*Q* Check if H1.0 immunofluorescence intensity >= 90 (inclusive). Item: Cn1c(=O)c2c(ncn2CC2OCCO2)n(C)c1=O
*A* t

====

System: TDF;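 also: TDF is a line of transformed human dermal fibroblasts of mesenchymal origin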
Assay: H1.0 immunofluorescence intensity relative to DMSO (% of DMSO); higher = stronger H1.0 induction, active = 120 or more
Conditions: concentration: 10 µM; 24 h
measured quantity: H1.0 immunofluorescence intensity

*Q* Which value of H1.0 immunofluorescence intensity has been reported for Clc1ccc(Nc2nnc(Cc3ccncc3)c3ccccc23)cc1 in the records?
*A* 97.2 (inactive)

*Q* Which value of H1.0 immunofluorescence intensity has been reported for Cl.NC(CO)C(=O)NNCc1ccc(O)c(O)c1O (centres undefined) [Benserazide hydrochloride] in the records?
*A* 98.3 (inactive)

*Q* Which value of H1.0 immunofluorescence intensity has been reported for COc1cc(/C=C/C(=O)NCCn2c(C)cc3ccccc32)cc(OC)c1OC in the records?
*A* 103 (inactive)

*Q* Which value of H1.0 immunofluorescence intensity has been reported for CC1=CCC2(C)CCC(O)(C(C)C)C2C(OC(=O)c2ccc(O)cc2)C1 (centres undefined) in the records?
*A* 97.8 (inactive)

*Q* Which value of H1.0 immunofluorescence intensity has been reported for CN(C)c1nc(N(C)C)nc(N(C)C)n1 in the records?
*A* 100 (inactive)

*Q* Which value of H1.0 immunofluorescence intensity has been reported for Cl.NC(N)=NC(=O)Cc1c(Cl)cccc1Cl [Guanfacine.HCl] in the records?
*A* 102 (inactive)

*Q* Which value of H1.0 immunofluorescence intensity has been reported for CC(=O)OC1(C(C)=O)CCC2C3C=C(C)C4=CC(=O)CCC4(C)C3CCC21C (centres undefined) [Megestrol Acetate] in the records?
*A* 98.9 (inactive)

*Q* Which value of H1.0 immunofluorescence intensity has been reported for CC(=O)OCC(CCn1cnc2cnc(N)nc21)COC(C)=O in the records?
*A* 99.2 (inactive)

*Q* Which value of H1.0 immunofluorescence intensity has been reported for CN1C2CCC1CC(OC(c1ccccc1)c1ccccc1)C2.CS(=O)(=O)O (centres undefined) [Benztropine mesylate] in the records?
*A* 97.6 (inactive)

====

System: HCC1569;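 also: TDF denotes transformed human dermal fibroblasts of mesenchymal origin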
Assay: cell number relative to DMSO (% of DMSO); higher = more cells (less growth inhibition / toxicity)
Conditions: concentration: 10 µM; 24 h
measured quantity: cell number

*Q* Which value of cell number has been reported for Cc1c(C(=O)O)c(O)cc2c1C(=O)c1c(O)c(C3OC(CO)C(O)C(O)C3O)c(O)c(O)c1C2=O (configuration not stated) [Carminic acid] in the records?
*A* 101

*Q* Which value of cell number has been reported for Cc1cnc(C(=O)O)c[n+]1[O-] [Acipimox] in the records?
*A* 100

*Q* Which value of cell number has been reported for N[C@H](CCC(=O)NCS(=O)(=O)O)C(=O)O [gamma-D-Glutamylaminomethylsulfonic acid] in the records?
*A* 101

*Q* Which value of cell number has been reported for NC(CS(=O)O)C(=O)O [L-Cysteinesulfinic Acid] in the records?
*A* 102

*Q* Which value of cell number has been reported for O=[N+]([O-])c1ccc(CSc2ncnc3c2ncn3C2OC(CO)C(O)C2O)cc1 (stereo not drawn) [S-(4-Nitrobenzyl)-6-thioinosine] in the records?
*A* 99

*Q* Which value of cell number has been reported for O=C1Nc2ccc(Cl)cc2C(C#CC2CC2)(C(F)(F)F)O1 (configuration not stated) [Efavirenz] in the records?
*A* 101

*Q* Which value of cell number has been reported for OCC1OC(n2cnc3c(NC4CCCC4)ncnc32)C(O)C1O (configuration not stated) [N6-Cyclopentyladenosine] in the records?
*A* 99.8

*Q* Which value of cell number has been reported for NC(=O)C1=CN(C2OC(COP(=O)([O-])OP(=O)([O-])OCC3OC(n4cnc5c(N)ncnc54)C(OP(=O)([O-])[O-])C3O)C(O)C2O)C=CC1.[Na+].[Na+].[Na+].[Na+] (configuration not stated) [NADPH tetrasodium] in the records?
*A* 103

*Q* Which value of cell number has been reported for NC(N)=S [Thiourea] in the records?
*A* 100

*Q* Which value of cell number has been reported for CCCCCC=CCC=CCC1OC1CC=CCCCC(=O)O (configuration not stated) [8,9-Epoxyeicosatrienoic acid] in the records?
*A* 103

*Q* Which value of cell number has been reported for CNC(=O)C1OC(n2cnc3c(NCc4ccc(N)cc4)ncnc32)C(O)C1O (configuration not stated) in the records?
*A* 99.9

*Q* Which value of cell number has been reported for CC(C)OC(=O)C(C)(C)Oc1ccc(C(=O)c2ccc(Cl)cc2)cc1 [Fenofibrate] in the records?
*A* 99.6

*Q* Which value of cell number has been reported for Cc1cc(C(C)(C)C)cc(C)c1CC1=NCCN1.Cl [Xylometazoline hydrochloride] in the records?
*A* 97.5

*Q* Which value of cell number has been reported for CC(C)Nc1cccnc1N1CCN(C(=O)c2cc3cc(NS(C)(=O)=O)ccc3[nH]2)CC1.CS(=O)(=O)O [Delavirdine mesylate] in the records?
*A* 101

*Q* Which value of cell number has been reported for Cc1ccc(C(=CCN2CCCC2)c2ccccn2)cc1.Cl [Trans-triprolidine.HCl] in the records?
*A* 100

*Q* Which value of cell number has been reported for CNNCc1ccc(C(=O)NC(C)C)cc1 [Procarbazine] in the records?
*A* 102

*Q* Which value of cell number has been reported for CC(C)Cc1ccc(C(C)C(=O)NO)cc1 (configuration not stated) [Ibuproxam] in the records?
*A* 103

*Q* Which value of cell number has been reported for O=C(CCCN1CCN(c2ccccn2)CC1)c1ccc(F)cc1 [Azaperone] in the records?
*A* 98.6

*Q* Which value of cell number has been reported for CC(=O)C(C)=NO [2,3-Butanedione monoxime] in the records?
*A* 100

*Q* Which value of cell number has been reported for NC(Cc1ccc(Cl)cc1)C(=O)O (racemic) in the records?
*A* 101

*Q* Which value of cell number has been reported for CCCCc1oc2ccccc2c1C(=O)c1cc(I)c(OCCN(CC)CC)c(I)c1.Cl [Amiodarone hydrochloride] in the records?
*A* 98.5

*Q* Which value of cell number has been reported for CCCCCC=CCC=CCC=CCC1OC1CCCC(=O)O (configuration not stated) [5,6-Epoxyeicosatrienoic acid] in the records?
*A* 101
